Tested on: IGROV1 ovarian
Test Method Notes: NCI tumour cell line growth inhibition, 48 h
The entries below are paired with their reported TGI.

Below, each entry is followed by its recorded TGI result.
>  <Compound>
OCc1ccc(N2CCCC2c2ccccc2)cc1Cl (stereo unspecified)

>  <TGI>
0.813 µM

$$$$
>  <Compound>
Oc1ccc(-c2cc(-c3cc(-c4ccc(O)cc4)no3)on2)cc1

>  <TGI>
> 100 µM

$$$$
>  <Compound>
CCN(CC)CC1c2ccccc2C(CNc2ccccc2)N1C (stereo unspecified)

>  <TGI>
> 100 µM

$$$$
>  <Compound>
OCC1OC(n2cnc3c(N/N=C\c4ccccn4)ncnc32)C(O)C1O (stereo unspecified)

>  <TGI>
8.98 µM

$$$$
>  <Compound>
CCC(=O)C12OC3OC(C)(C)OC3C1OC(C)(C)O2 (stereo unspecified)

>  <TGI>
> 100 µM

$$$$

Input line: Entry under review: COc1cccc(OC(=O)c2ccc(C(F)(F)F)nc2Nc2cc(Cl)ccc2C)c1 . Reported TGI?
Output line: > 100 µM

Input line: And O=C(O)C12C3CCC(CC3)C1(C(=O)O)C1CCC2C1 (stereo unspecified) ?
Output line: > 100 µM

Input line: And CC(C)NCCCn1c(Sc2cc3c(cc2I)OCO3)nc2c(N)ncnc21 ?
Output line: 3.52 µM

Input line: And Cn1c(=O)c2[nH]c(CCNC(=O)c3ccccc3)nc2n(C)c1=O ?
Output line: > 100 µM

Input line: And N#Cc1c(N2CCOCC2)nc(=S)[nH]c1-c1ccco1 ?
Output line: 13 µM

Input line: And CCc1nn(CN2CCOCC2)c(=S)n1/N=C/c1ccc(-c2ccc(Cl)cc2)o1 ?
Output line: > 100 µM

###

System: SF-268 CNS
Test Method Notes: NCI tumour cell line growth inhibition, 48 h
Measured Endpoint: TGI

Input line: Entry under review: COCc1nc(N)nc(N2N=C(C)CC2(C)C)n1 . Reported TGI?
Output line: > 100 µM

Input line: And O=C1OC(Cc2ccccc2)(N2CCCC2=O)C1c1ccccc1 (stereo unspecified) ?
Output line: > 100 µM

Input line: And O=C(/C=C/c1ccccc1)CCN1CCOCC1 ?
Output line: 38.3 µM

Input line: And Cc1ccc(/C=N\NC(=O)c2[nH]c3ccc(F)cc3c2-c2ccccc2)cc1 ?
Output line: 42.5 µM

Input line: And O=c1[nH]c(=O)n(C2CC(O)C(COP(=O)(OCc3ccc([N+](=O)[O-])o3)N(CCCCCl)CC(O)CO)O2)cc1F (stereo unspecified) ?
Output line: > 100 µM

Input line: And COc1cc(C(=O)C/C(CCC(=O)Nc2ccccc2[N+](=O)[O-])=N\NC(N)=O)ccc1O ?
Output line: > 100 µM

Input line: And CC(=O)Nc1ccc(SC#N)c2c(NC(C)=O)cccc12 ?
Output line: > 100 µM

Input line: And O=C(NC1CCCCC1NC(c1ccccc1)(c1ccccc1)c1ccccc1)C(=O)NC1CCCCC1NC(c1ccccc1)(c1ccccc1)c1ccccc1 (stereo unspecified) ?
Output line: > 100 µM

Input line: And COc1cccc(OC)c1C(=O)OCc1ccccc1 ?
Output line: > 100 µM

Input line: And CCC(C=O)P1(=O)OC(C)(C)CN1C(C)(C)C (stereo unspecified) ?
Output line: > 100 µM

Input line: And Cc1n[nH]c(=O)n1N1C(=O)CCCC1=O ?
Output line: > 100 µM

Input line: And NC(=O)c1csc(C2OC(CO)C(O)C2O)n1 (stereo unspecified) ?
Output line: 9040 µM

Input line: And O=C1c2cccnc2C(=O)c2c1c(C(=O)NCCCN1CCCCC1)c1ccccn21 ?
Output line: 8.3 µM

Input line: And CC(C)(C)OC(=O)N/N=C(/N)Cc1ccc(Cl)cc1 ?
Output line: > 100 µM

Input line: And CC(=O)/C=C/c1cn(C(=O)OC(C)(C)C)c2ccc(Br)cc12 ?
Output line: 97.9 µM

Input line: And O=C(NC1CCCCC1)NS(=O)(=O)c1ccc2c(c1)CCC2 ?
Output line: > 100 µM

Input line: And Cn1c(=O)c2[nH]c(CCNC(=O)c3ccccc3)nc2n(C)c1=O ?
Output line: > 100 µM

Input line: And CN1C(=O)N(C)C2C1NN=c1s/c(=C\c3ccc(C(F)(F)F)cc3)c(=O)n12 (stereo unspecified) ?
Output line: > 100 µM

Input line: And CC(=O)c1ccc2c(c1)CC1(C2)Cc2cc3c(cc2C1=O)CCC3 (stereo unspecified) ?
Output line: 88 µM

Input line: And OCCNCCN1CCN(CCCN2c3ccccc3Sc3ccc(C(F)(F)F)cc32)CC1 ?
Output line: 44 µM

Input line: And COC(=O)[C@@H]1[C@H](OC(C)=O)CCC2[C@@]3(C[C@@H](c4ccoc4)O[C@@H]3OC)[C@H](C)CC[C@]21C(=O)OC (stereo partly specified) ?
Output line: > 25 µM

###

Tested on: MDA-MB-231 breast
Test Method Notes: NCI tumour cell line growth inhibition, 48 h
Measured Endpoint: GI50

Below, each entry is followed by its recorded GI50 result.
>  <Compound>
N#CC1(C(N)=O)C(c2ccc(Cl)cc2)CC(=O)CC1c1ccc(Cl)cc1 (stereo not given)

>  <System Name>
MDA-MB-231 breast

>  <Measured Endpoint>
GI50

>  <Measured>
13.8 µM

$$$$
>  <Compound>
CC(C)C[C@H](NC(=O)CNC(=O)c1cc(Cl)ccc1Cl)B1OC(=O)CC(CC(=O)O)(C(=O)O)O1 (stereo not given in full)

>  <System Name>
MDA-MB-231 breast

>  <Measured Endpoint>
GI50

>  <Measured>
0.0532 µM

$$$$
>  <Compound>
CC(=O)OC12C=C(C)C(C(C)C1)C1C(=O)N(CCN3CCOCC3)C(=O)C12 (stereo not given)

>  <System Name>
MDA-MB-231 breast

>  <Measured Endpoint>
GI50

>  <Measured>
> 100 µM

$$$$
>  <Compound>
COc1cc(N2C(=O)[C@H](O)C2c2ccc(SC)cc2)cc(OC)c1OC (stereo not given in full)

>  <System Name>
MDA-MB-231 breast

>  <Measured Endpoint>
GI50

>  <Measured>
0.0235 µM

$$$$
>  <Compound>
C1CCC([PH+](C2CCCCC2)C2CCCCC2[PH+](C2CCCCC2)C2CCCCC2)CC1.[Au].[CH-]1CCCCC1CC1CCCC[N-]1 (stereo not given)

>  <System Name>
MDA-MB-231 breast

>  <Measured Endpoint>
GI50

>  <Measured>
0.227 µM

$$$$
>  <Compound>
CN1CCN(C(=O)c2cc(-c3ccc4ncnc(N5CCc6cc(F)c(Cl)cc65)c4c3)cnc2N)CC1

>  <System Name>
MDA-MB-231 breast

>  <Measured Endpoint>
GI50

>  <Measured>
0.444 µM

$$$$
>  <Compound>
OCC1OC(n2cnc3c(N/N=C\c4ccccn4)ncnc32)C(O)C1O (stereo not given)

>  <System Name>
MDA-MB-231 breast

>  <Measured Endpoint>
GI50

>  <Measured>
0.0781 µM

$$$$
>  <Compound>
Fc1ccc(/C=N/n2c(-c3ccc(F)c(Cl)c3)nn(CNc3ccccc3C(F)(F)F)c2=S)cc1

>  <System Name>
MDA-MB-231 breast

>  <Measured Endpoint>
GI50

>  <Measured>
67 µM

$$$$

Input line: Entry under review: CC(=O)/C=C/c1cn(C(=O)OC(C)(C)C)c2ccc(Br)cc12 . Reported GI50?
Output line: 18.9 µM

Input line: And O=[N+]([O-])c1ccc(C=Cc2ccccc2)cc1.[C-]#[O+].[C-]#[O+].[C-]#[O+].[Cr] ?
Output line: 46.9 µM

Input line: And COc1ccc(-c2[nH]c3ccccc3c2-c2ccc(OC)cc2)cc1 ?
Output line: 4.69 µM

###

Tested on: K-562 leukemia
Test Method Notes: NCI tumour cell line growth inhibition, 48 h; in the data active means GI50 below about 0.43 µM; inactive means the rest
Respond only with the outcome that fits, drawn from active, inactive

# count of solved cases: 5
>  <Compound>
CN(C)CCCn1c(=O)c2ccccc2c2ccccc21

>  <Discrete Label>
inactive

$$$$
>  <Compound>
COc1cccc(OC(=O)c2ccc(C(F)(F)F)nc2Nc2cc(Cl)ccc2C)c1

>  <Discrete Label>
inactive

$$$$
>  <Compound>
COc1cc(N2C(=O)[C@H](O)C2c2ccc(SC)cc2)cc(OC)c1OC (some centres undefined)

>  <Discrete Label>
active

$$$$
>  <Compound>
COc1ccc(-c2[nH]c3ccccc3c2-c2ccc(OC)cc2)cc1

>  <Discrete Label>
inactive

$$$$
>  <Compound>
CCOC(=O)C1=C(C)N(c2ccc(Cl)cc2)[C@]2(C#N)C(O)=C(Cl)C(Cl)=C(O)[C@]12C#N

>  <Discrete Label>
inactive

$$$$

Input line: Please indicate how the test categorized CC(=O)OC12C=C(C)C(C(C)C1)C1C(=O)N(CCN3CCOCC3)C(=O)C12 (centres undefined) .
Output line: inactive

Input line: And OCC1OC(n2cnc3c(N/N=C\c4ccccn4)ncnc32)C(O)C1O (centres undefined) ?
Output line: active

Input line: And CCOc1ccccc1C(=O)N1CCN(c2cc(Cl)cc(Cl)c2)CC1 ?
Output line: active

Input line: And CC(=O)/C=C/c1cn(C(=O)OC(C)(C)C)c2ccc(Br)cc12 ?
Output line: inactive
